# target-system: Proteasome subunit beta type-8 (Homo sapiens, UniProt P28062)
# Sequence (P28062 whole entry): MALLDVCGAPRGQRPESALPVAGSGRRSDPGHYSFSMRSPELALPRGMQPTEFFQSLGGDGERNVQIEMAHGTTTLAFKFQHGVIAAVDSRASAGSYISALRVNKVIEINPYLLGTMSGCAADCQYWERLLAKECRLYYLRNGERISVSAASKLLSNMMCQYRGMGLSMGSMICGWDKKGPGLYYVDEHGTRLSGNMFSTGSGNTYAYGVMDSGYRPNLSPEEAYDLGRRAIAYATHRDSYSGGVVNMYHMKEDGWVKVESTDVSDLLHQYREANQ
# assay-info: Inhibition of immunoproteasome subunit […] in human OPM1 cells assessed as reduction in cell viability incubated for 48 hrs by MTT assay
property: pIC50
Scale explanation: pIC50 corresponds to minus log10 of a concentration expressed in moles per litre.

Send back Proteasome subunit beta type-8 (Homo sapiens, UniProt P28062) pIC50 of CC1=C(C(=O)N[C@H](C)C(=O)N[C@@H](Cc2c[nH]c3ccccc23)C(=O)N[C@@H](Cc2ccccc2)C(=O)[C@@]2(C)CO2)Cc2ccccc21 only.
5.52

###

# target-system: Proteasome subunit beta type-8 (Homo sapiens)
# assay-info: Inhibition of immunoproteasome subunit LMP7 in human DOX40 cells assessed as reduction in cell viability incubated for 48 hrs by MTT assay
property: pIC50
Scale explanation: pIC50 corresponds to minus log10 of a concentration expressed in moles per litre.

Name the recorded pIC50 of the compound listed here: CC1=C(C(=O)N[C@H](C)C(=O)N[C@@H](Cc2c[nH]c3ccccc23)C(=O)N[C@@H](Cc2ccccc2)C(=O)[C@@]2(C)CO2)Cc2ccccc21
5.52

Source of measurements: BindingDB's records for doi:10.1021/acs.jmedchem.9b01226
